Items are presented alongside their recorded apparent KD of MS2 coat protein.
- Test system: MS2 coat protein
- protocol.details: apparent KD of MS2 coat protein, switch ON state; designed switch direction (-1 OFF switch, 1 ON switch): 1; higher = weaker reporter binding
- study.conditions: FMN input: 0 or 200 uM; Eterna round: R93 (includes R88 designs)
measurement.name: apparent KD of MS2 coat protein (nM)

chain.sequence | measurement.name | recorded.measurement
AAAAGACAUGAGGAUCACCCAUGUAAAGACAUAGGAGGAUAUGUCUGGAAAAAAGACUGGACAGAAGGCCUUUGUC [SS1 - 62] | apparent KD of MS2 coat protein | 20
AAACAGAUAGGACAGGAUAUGUCGUGAUAAACAUGAGGAUCACCCAUGUGAGACAUCACGUAAUCGCAGAAGGGUCCUGUCUUAC [Aquditiri] | apparent KD of MS2 coat protein | 16.3
ACUAUACAUGAGGAUCACCCAUGUCAGGUGGGACUAGGAUAUCAUAAGCCAGAGUAAGAAUGAGAAGGAGUAGAAA [JR_SS001_Sub306] | apparent KD of MS2 coat protein | 143
AUAAAUAAAGUUAAGGAUAUUAUAAAGAAAACAUGAGGAUCACCCAUGUAAAAGAAAAUAGUGGGUAAGAAGGUAACAAAUAAAU [SS2 M 18] | apparent KD of MS2 coat protein | 23.1
AAAUAAAUGACUAAGGAUAUAUCAAAGAAAACAUGAGGAUCACCCAUGUAAUAAUAAAAAGGGUGAUAGAAGGUAGUCAACAAAC [74%, More Paria 4] | apparent KD of MS2 coat protein | 23.7
AAGAAACAUGAGGAUCACCCAUGUGAAAGAAACACAGGAUAUGCGAAAAGAAACAAAGAAGCAGAAGGGUGAAGAA [Mat - Same State 1 - Tesla mod - 58] | apparent KD of MS2 coat protein | 22.6
GAGCCGCGGGCACAGGAUAUGCUCGGGCAAACAUGAGGAUCACCCAUGUGCGGCCUAAAUACGACGCAGAAGGGUGCUUGUGUGU [Lausisan] | apparent KD of MS2 coat protein | 36.5
